Consider the following IC50 values measured on DNA topoisomerase 2-alpha (Homo sapiens).
Sequence (P11388 whole entry): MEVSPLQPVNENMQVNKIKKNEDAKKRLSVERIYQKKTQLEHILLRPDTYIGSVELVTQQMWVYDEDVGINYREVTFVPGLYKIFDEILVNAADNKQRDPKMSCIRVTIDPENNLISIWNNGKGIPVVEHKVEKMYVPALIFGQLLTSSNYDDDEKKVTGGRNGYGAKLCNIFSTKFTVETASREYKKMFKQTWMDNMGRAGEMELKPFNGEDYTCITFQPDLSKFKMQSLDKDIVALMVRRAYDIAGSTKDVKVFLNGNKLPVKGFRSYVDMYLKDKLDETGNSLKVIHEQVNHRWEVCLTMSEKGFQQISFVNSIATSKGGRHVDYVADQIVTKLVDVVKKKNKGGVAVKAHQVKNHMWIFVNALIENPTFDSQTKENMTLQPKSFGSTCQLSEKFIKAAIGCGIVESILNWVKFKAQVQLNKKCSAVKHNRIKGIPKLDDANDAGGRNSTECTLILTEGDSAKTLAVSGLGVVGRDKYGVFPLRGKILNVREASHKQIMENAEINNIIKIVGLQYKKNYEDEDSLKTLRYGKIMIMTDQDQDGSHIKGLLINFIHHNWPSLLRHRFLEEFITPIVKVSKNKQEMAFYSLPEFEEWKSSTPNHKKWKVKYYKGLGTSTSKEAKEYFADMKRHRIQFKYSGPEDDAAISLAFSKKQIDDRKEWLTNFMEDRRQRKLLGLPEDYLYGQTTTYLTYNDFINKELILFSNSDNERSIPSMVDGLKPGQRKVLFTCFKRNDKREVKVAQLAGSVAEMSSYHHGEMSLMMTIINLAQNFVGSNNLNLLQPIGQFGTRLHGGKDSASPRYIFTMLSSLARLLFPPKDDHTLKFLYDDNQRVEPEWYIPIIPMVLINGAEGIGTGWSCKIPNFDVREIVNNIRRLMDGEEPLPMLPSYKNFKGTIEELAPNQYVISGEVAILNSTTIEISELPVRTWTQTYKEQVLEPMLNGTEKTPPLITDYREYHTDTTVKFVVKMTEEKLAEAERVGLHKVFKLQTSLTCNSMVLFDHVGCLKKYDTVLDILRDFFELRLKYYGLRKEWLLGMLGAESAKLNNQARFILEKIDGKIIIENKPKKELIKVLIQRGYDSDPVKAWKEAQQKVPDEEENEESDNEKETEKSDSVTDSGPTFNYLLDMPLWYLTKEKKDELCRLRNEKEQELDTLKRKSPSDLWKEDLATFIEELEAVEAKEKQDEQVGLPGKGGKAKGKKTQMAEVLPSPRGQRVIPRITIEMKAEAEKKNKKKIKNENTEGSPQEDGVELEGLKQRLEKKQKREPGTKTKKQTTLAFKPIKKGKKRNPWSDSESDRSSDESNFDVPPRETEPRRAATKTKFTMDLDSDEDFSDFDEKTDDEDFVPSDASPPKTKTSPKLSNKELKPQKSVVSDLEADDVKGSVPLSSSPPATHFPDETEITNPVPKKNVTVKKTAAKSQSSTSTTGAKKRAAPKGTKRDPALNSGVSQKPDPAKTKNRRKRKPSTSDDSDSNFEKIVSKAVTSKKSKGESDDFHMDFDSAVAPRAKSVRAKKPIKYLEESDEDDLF

Reference set, count: 2
INSERT INTO assay_data (compound, endpoint_result) VALUES
  ('CC(C)=CCC[C@](C)(O[C@@H]1O[C@H](CO)[C@@H](O)[C@H](O)[C@H]1O)[C@H]1CC[C@]2(C)[C@@H]1[C@H](O)C[C@@H]1[C@@]3(C)CC[C@H](O)C(C)(C)[C@@H]3[C@@H](O[C@@H]3O[C@H](CO)[C@@H](O)[C@H](O)[C@H]3O[C@@H]3O[C@@H](C)[C@H](O)[C@@H](O)[C@H]3O)C[C@]12C [GINSENOSIDE RE]', '> 250 µM'),
  ('C/C=C(/C)C(=O)O[C@H]1[C@H](O)[C@]2(CO)[C@H](O)[C@H](O)[C@]3(C)C(=CC[C@@H]4[C@@]5(C)CC[C@H](O[C@@H]6O[C@H](C(=O)O)[C@@H](O)[C@H](O[C@@H]7OC[C@@H](O)[C@H](O)[C@H]7O)[C@H]6O[C@@H]6O[C@H](CO)[C@@H](O)[C@H](O)[C@H]6O)C(C)(C)[C@@H]5CC[C@]43C)[C@@H]2CC1(C)C [ERYNGIOSIDE 94A]', '> 250 µM');

Below: the item to evaluate.
Request: IC50, test system DNA topoisomerase 2-alpha (Homo sapiens), entry C/C=C(/C)C(=O)O[C@H]1[C@H](O)[C@]2(COC(C)=O)[C@H](O)C[C@]3(C)C(=CC[C@@H]4[C@@]5(C)CC[C@H](O[C@@H]6O[C@H](C(=O)O)[C@@H](O)[C@H](O[C@@H]7O[C@@H](CO)[C@H](O)[C@H]7O)[C@H]6O[C@@H]6O[C@H](CO)[C@@H](O)[C@H](O)[C@H]6O)[C@](C)(CO)[C@@H]5CC[C@]43C)[C@@H]2CC1(C)C [AESCULIOSIDE IIIA]
> 250 µM

###

ASSAY_INFO: Inhibition of Leishmania donovani DNA topoisomerase 1 treated simultaneously with DNA
RESULT_TYPE: pIC50
Bear in mind: pIC50 is minus log10 of a mol/L concentration; give just that figure.

Can you share its pIC50? I mean this molecule: O=c1cc(-c2ccc(O)c(O)c2)oc2cc(O)cc(O)c12 [LUTEOLIN]
4.85

###

Tested on: A549
ASSAY_INFO: Cytotoxicity against human A549 cells after 48 hrs by WST8 assay
Assay type: functional
REPORTED_CONDITIONS: A549, 48 h
Below is a list of entries, each paired with its recorded GI50 value.
Write it as a number; the unit µM goes unstated.

INSERT INTO assay_data (compound, endpoint_result) VALUES
  ('C/C=C(/C)C(=O)O[C@H]1[C@H](OC(=O)C(C)C)[C@]2(CO)[C@H](O)[C@H](O)[C@]3(C)C(=CC[C@@H]4[C@@]5(C)CC[C@H](O[C@@H]6O[C@H](C(=O)O)[C@@H](O)[C@H](O[C@@H]7O[C@@H](CO)[C@H](O)[C@H]7O)[C@H]6O[C@@H]6O[C@H](CO)[C@@H](O)[C@H](O)[C@H]6O)[C@](C)(CO)[C@@H]5CC[C@]43C)[C@@H]2CC1(C)C [AESCULIOSIDE IIIB]', 11.2);

Pending compound:
Return reported GI50; argument: `C/C=C(/C)C(=O)O[C@H]1[C@H](OC(=O)/C(C)=C\C)[C@]2(CO)[C@H](O)C[C@]3(C)C(=CC[C@@H]4[C@@]5(C)CC[C@H](O[C@@H]6O[C@H](C(=O)O)[C@@H](O)[C@H](O[C@@H]7O[C@@H](CO)[C@H](O)[C@H]7O)[C@H]6O[C@@H]6O[C@H](CO)[C@@H](O)[C@H](O)[C@H]6O)[C@](C)(CO)[C@@H]5CC[C@]43C)[C@@H]2CC1(C)C`
6.36

Values compiled from ChEMBL document CHEMBL1157938.
